studyTarget: human acetylcholinesterase (AChE) (Homo sapiens)
Sequence (P22303 32-617 isoform P22303-2 limits assumed): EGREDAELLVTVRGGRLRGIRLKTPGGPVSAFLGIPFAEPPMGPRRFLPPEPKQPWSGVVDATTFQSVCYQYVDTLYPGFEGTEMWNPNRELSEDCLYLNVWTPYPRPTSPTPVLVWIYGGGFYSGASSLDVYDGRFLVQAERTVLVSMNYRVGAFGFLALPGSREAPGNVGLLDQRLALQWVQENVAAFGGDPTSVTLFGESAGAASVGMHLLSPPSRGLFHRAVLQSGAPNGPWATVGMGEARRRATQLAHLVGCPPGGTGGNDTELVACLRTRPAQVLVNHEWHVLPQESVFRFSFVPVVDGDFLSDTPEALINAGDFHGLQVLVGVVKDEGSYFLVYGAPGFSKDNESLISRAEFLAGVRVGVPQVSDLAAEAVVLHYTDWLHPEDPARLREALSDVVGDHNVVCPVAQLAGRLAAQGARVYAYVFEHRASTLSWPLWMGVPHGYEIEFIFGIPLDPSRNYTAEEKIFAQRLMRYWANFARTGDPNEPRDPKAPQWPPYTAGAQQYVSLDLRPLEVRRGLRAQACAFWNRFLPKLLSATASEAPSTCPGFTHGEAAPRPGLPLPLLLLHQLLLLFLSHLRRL
propertyName: pKi
To interpret pKi, take it as minus log10 of a concentration measured in moles per litre.

# molecule, pKi
measured = [
    ("C[C@@H]1CCCN1CCCCOc1ccc2occc(=O)c2c1 [Compound 27]", 5.03),
]

Could you now consider this next molecule?
Query: What value of pKi has been recorded for this entry: CN1CCN(CCCCOc2ccc3occc(=O)c3c2)CC1 [Compound 15]
Response: 5.69
